- protocol details: in vitro
- conditions: African green monkey
measure name: CC50

compound	measure name	observed measurement
CC1(C)[C@@H]2CC[C@@]1(C)[C@H](OCCN1CCCC1)C2 (racemic)	CC50	231 µM

Below: the item to evaluate.
Field CC50 (entry CC1(C)[C@@H]2CC[C@@]1(C)[C@H](OCCN1CCCCC1)C2 (racemic) ) reads 55.9 µM

----------
- protocol details: in vitro
- conditions: African green monkey
Some molecules, each annotated with its measured CC50.
Write down the numeric answer in µM and omit the unit.

molecule	unit of measurement	CC50
CC1(C)[C@@H]2CC[C@@]1(C)[C@H](OCCN1CCCCCC1)C2 (racemic)	µM	19.1
CC1(C)[C@@H]2CC[C@@]1(C)[C@H](OCCCN1CCCCCC1)C2 (racemic)	µM	23.7

Below: the item to evaluate.
Field CC50 (entry O=C(NN1C(=O)[C@@H]2[C@@H]3C=C[C@@H]([C@H]4C[C@@H]34)[C@@H]2C1=O)c1ccc(C(F)(F)F)cc1 [ST-246, reference compound] ) reads 1280

----------
- protocol details: in vitro
- conditions: African green monkey
measure name: CC50

Below, 7 molecules whose answers are already recorded.
molecule	CC50
CN1CCN(CCO[C@@H]2C[C@H]3CC[C@]2(C)C3(C)C)CC1 (racemic)	100 µM
CC1CCN(CCCO[C@@H]2C[C@H]3CC[C@]2(C)C3(C)C)CC1 (racemic)	40.9 µM
Nc1ccn(C[C@@H](CO)OCP(=O)(O)O)c(=O)n1 [Cidofovir, reference compound]	475 µM
CC1(C)[C@@H]2CC[C@@]1(C)[C@H](OCCCN1CCOCC1)C2 (racemic)	174 µM
CC1(C)[C@@H]2CC[C@@]1(C)[C@H](OCCCN1CCCCC1)C2 (racemic)	140 µM
CN1CCN(CCCO[C@@H]2C[C@H]3CC[C@]2(C)C3(C)C)CC1 (racemic)	64.2 µM
CC1(C)[C@@H]2CC[C@@]1(C)[C@H](OCCN1CCN(Cc3ccccc3)CC1)C2 (racemic)	14 µM

Field CC50 (entry CC1(C)[C@@H]2CC[C@@]1(C)[C@H](OCCCN1CCN(Cc3ccccc3)CC1)C2 (racemic) ) reads 21.3 µM

----------
- protocol details: in vitro
- conditions: dog
measure name: CC50 (µM)
Write down the numeric answer in µM and omit the unit.

Below, 3 molecules whose answers are already recorded.
molecule	unit of measurement	CC50
CC1(C)[C@@H]2CC[C@@]1(C)[C@H](OCCN1CCN(Cc3ccccc3)CC1)C2 (racemic)	µM	33.7
CC1(C)[C@@H]2CC[C@@]1(C)[C@H](OCCCN1CCOCC1)C2 (racemic)	µM	562
CC1CCN(CCCO[C@@H]2C[C@H]3CC[C@]2(C)C3(C)C)CC1 (racemic)	µM	491

Below: the item to evaluate.
Field CC50 (entry CC1(C)[C@@H]2CC[C@@]1(C)[C@H](OCCN1CCCCCC1)C2 (racemic) ) reads 50.5

----------
- protocol details: in vitro
- conditions: dog
measure name: CC50 (µM)
Write down the numeric answer in µM and omit the unit.

Below, 6 molecules whose answers are already recorded.
molecule	observed measurement
CC1(C)[C@@H]2CC[C@@]1(C)[C@H](OCCN1CCOCC1)C2 (racemic) [Compound 7a]	385
CN1CCN(CCCO[C@@H]2C[C@H]3CC[C@]2(C)C3(C)C)CC1 (racemic) [Compound 5b]	51
CC1(C)[C@@H]2CC[C@@]1(C)[C@H](OCCCN1CCN(Cc3ccccc3)CC1)C2 (racemic) [Compound 6b]	10.8
CN1CCN(CCO[C@@H]2C[C@H]3CC[C@]2(C)C3(C)C)CC1 (racemic) [Compound 5a]	28.5
CC1(C)[C@@H]2CC[C@@]1(C)[C@H](OCCCN1CCCCC1)C2 (racemic) [Compound 3b]	950
CC1(C)[C@@H]2CC[C@@]1(C)[C@H](OCCCN1CCCCCC1)C2 (racemic) [Compound 8b]	374

Below: the item to evaluate.
Field CC50 (entry CC(N)C12CC3CC(CC(C3)C1)C2 (centres unmarked) [Rimantadine, reference compound] ) reads 335

Hey, just so you know, these numbers are from paper PMC8070564.
